# targetSystem: Sodium- and chloride-dependent GABA transporter 1 (Mus musculus)
# procedureSummary: Inhibition of NO711 binding to mouse GAT1 expressed in HEK cell membranes incubated for 40 mins in presence of NO711 by LC-ESI-MS/MS analysis
# Parameters: species or system Membrane
propertyName: IC50 (µM)
Respond numerically; units are µM and should not be typed.

Below are worked cases with known answers.
(Q) Please report the recorded IC50 for `COc1ccc(C(/C=C/CN2CCC[C@H](C(=O)O)C2)(c2ccc(OC)cc2)c2ccc(OC)cc2)cc1` .
(A) 46.8

(Q) Could you tell me which IC50 is on file for `CC(C)(C)CNC[C@@H](O)[C@H](Cc1ccccc1)NCC(c1ccccc1)c1ccccc1` ?
(A) 85.1

New cases:
(Q) # get_value(readout='IC50', item= `O[C@@H](CNCc1ccccc1)[C@H](Cc1ccccc1)NCCC(c1ccccc1)c1ccccc1` )
(A) 30.2

---

# targetSystem: Amyloid-beta precursor protein (Homo sapiens)
# procedureSummary: Inhibition of HFIP-pretreated amyloid beta (1 to 42) (unknown origin) aggregation at 10 uM after 36 to 48 hrs by thioflavin-T fluorescence assay relative to control
# measurementContext: time 36-48 hrs
# inhibition listing for each entry below
Dear colleague, please return just the value in %, with no unit written.

(Q) State the recorded inhibition for this entry: `COc1cccc(CNC[C@@H](O)[C@H](Cc2ccccc2)NC(=O)C(c2ccccc2)c2ccccc2)c1`
(A) 20.5

New cases:
(Q) Please give the measured inhibition for this compound: `O=C(N[C@@H](Cc1ccccc1)[C@H](O)CNCC(F)(F)F)C(c1ccccc1)c1ccccc1`
(A) 20.5

(Q) Endpoint output: inhibition of `COc1ccccc1CNC[C@H](O)[C@H](Cc1ccccc1)NC(=O)C(c1ccccc1)c1ccccc1` . Value?
(A) 20.5

(Q) Name the reported inhibition value associated with the compound `CC(C)(C)NC[C@H](O)[C@H](Cc1ccccc1)NC(=O)CC(c1ccccc1)c1ccccc1`
(A) 20.5

(Q) Value lookup for inhibition; key = `COc1ccccc1CNC[C@H](O)[C@H](Cc1ccccc1)NCCC(c1ccccc1)c1ccccc1`
(A) 34.7

---

# key: entry, value: log10 IC50
# targetSystem: Sodium- and chloride-dependent GABA transporter 1 (Mus musculus)
# procedureSummary: Inhibition of mouse GAT1 expressed in HEK293 cell line assessed as reduction in [3H]GABA uptake incubated for 10 mins
# Type: cell-based
Please keep in mind that the values are log10 of IC50 expressed in µM.

(Q) Please look up its log10 IC50: `COc1ccccc1CNC[C@H](O)[C@H](Cc1ccccc1)NC(=O)C(c1ccccc1)c1ccccc1`
(A) 1.94

(Q) Field request: log10 IC50 | item: `O[C@@H](CNCc1ccccc1)[C@H](Cc1ccccc1)NCCC(c1ccccc1)c1ccccc1`
(A) 0.88

(Q) Entry `CC(C)(C)CNC[C@@H](O)[C@H](Cc1ccccc1)NC(=O)C(c1ccccc1)c1ccccc1` has what log10 IC50?
(A) 1.40

(Q) Given the entry `CC(C)(C)CNC[C@@H](O)[C@H](Cc1ccccc1)NCC(c1ccccc1)c1ccccc1` , report its measured log10 IC50.
(A) 1.42

(Q) Quick check: log10 IC50 of `CC(C)(C)c1cccc(CNC[C@@H](O)[C@H](Cc2ccccc2)NC(=O)C(c2ccccc2)c2ccccc2)c1` ?
(A) 1.04

(Q) Suppose we examine the compound `O=C(N[C@@H](Cc1ccccc1)[C@@H](O)CNCc1ccccc1)C(c1ccccc1)c1ccccc1` ; what log10 IC50 value has been reported?
(A) 1.54

(Q) // returns reported log10 IC50 for input `O=C(CC(c1ccccc1)c1ccccc1)N[C@@H](Cc1ccccc1)[C@H](O)CNCC1CC1`
(A) 1.60

---

# targetSystem: Amyloid-beta precursor protein (Homo sapiens) (UniProt P05067)
# Sequence (P05067 whole entry): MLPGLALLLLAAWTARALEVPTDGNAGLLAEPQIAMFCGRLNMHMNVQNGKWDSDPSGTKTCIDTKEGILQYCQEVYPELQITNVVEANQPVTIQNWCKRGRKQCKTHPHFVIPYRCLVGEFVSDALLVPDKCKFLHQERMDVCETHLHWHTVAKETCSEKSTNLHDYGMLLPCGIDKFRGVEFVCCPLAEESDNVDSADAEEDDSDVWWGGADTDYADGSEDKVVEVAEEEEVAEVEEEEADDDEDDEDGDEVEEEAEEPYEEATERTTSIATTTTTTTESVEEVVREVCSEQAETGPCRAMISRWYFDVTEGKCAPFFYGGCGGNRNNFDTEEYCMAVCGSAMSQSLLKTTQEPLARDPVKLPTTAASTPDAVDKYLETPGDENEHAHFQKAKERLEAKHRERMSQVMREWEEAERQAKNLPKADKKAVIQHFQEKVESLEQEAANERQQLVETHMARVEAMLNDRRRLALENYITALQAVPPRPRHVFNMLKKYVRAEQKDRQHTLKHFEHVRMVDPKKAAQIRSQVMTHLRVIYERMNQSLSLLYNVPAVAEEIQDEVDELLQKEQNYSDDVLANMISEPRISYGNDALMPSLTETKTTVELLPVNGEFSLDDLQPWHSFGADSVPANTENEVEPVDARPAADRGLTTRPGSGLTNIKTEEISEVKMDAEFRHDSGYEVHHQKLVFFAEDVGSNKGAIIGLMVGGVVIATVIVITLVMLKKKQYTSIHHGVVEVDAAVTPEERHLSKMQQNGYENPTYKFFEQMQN
# procedureSummary: Inhibition of HFIP-pretreated amyloid beta (1 to 42) (unknown origin) aggregation at 10 uM after 36 to 48 hrs by thioflavin-T fluorescence assay relative to control
# measurementContext: time 36-48 hrs
This section presents molecules with their documented inhibition values.
Respond with the figure and its unit, in that order.

(Q) Report inhibition for `CC(C)(C)c1cccc(CNC[C@@H](O)[C@H](Cc2ccccc2)NC(=O)CC(c2ccccc2)c2ccccc2)c1` please.
(A) 20.5%

---
(Q) Form field: reported inhibition of `C[C@H](NC[C@@H](O)[C@H](Cc1ccccc1)NCCC(c1ccccc1)c1ccccc1)c1ccccc1`
(A) 34.7%

(Q) If you can, please state the reported inhibition value of `C[C@H](NC[C@@H](O)[C@H](Cc1ccccc1)NC(=O)C(c1ccccc1)c1ccccc1)c1ccccc1` .
(A) 20.5%

---

# targetSystem: UniProt:P31650
# Sequence (P31650 whole entry): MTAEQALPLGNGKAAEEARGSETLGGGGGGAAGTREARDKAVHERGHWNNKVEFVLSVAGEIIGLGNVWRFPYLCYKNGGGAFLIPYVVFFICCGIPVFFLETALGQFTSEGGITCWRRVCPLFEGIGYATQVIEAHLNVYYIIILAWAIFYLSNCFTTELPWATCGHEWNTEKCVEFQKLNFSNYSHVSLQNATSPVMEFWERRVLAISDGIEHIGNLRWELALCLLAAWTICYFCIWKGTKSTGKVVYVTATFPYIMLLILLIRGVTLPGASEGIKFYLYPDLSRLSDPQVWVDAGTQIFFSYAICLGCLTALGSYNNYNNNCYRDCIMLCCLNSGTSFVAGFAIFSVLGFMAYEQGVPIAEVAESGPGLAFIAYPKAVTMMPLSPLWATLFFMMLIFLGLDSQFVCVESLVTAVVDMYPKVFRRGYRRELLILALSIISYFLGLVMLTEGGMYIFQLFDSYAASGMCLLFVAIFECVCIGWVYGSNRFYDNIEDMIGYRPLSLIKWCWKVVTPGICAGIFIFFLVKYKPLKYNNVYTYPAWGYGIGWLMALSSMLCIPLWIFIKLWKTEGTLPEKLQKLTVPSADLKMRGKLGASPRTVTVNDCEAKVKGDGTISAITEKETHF
# procedureSummary: Inhibition of mouse GAT4 expressed in HEK293 cell line assessed as reduction in [3H]GABA uptake at 100 uM incubated for 10 mins relative to control
# Type: cell-based
propertyName: inhibition (%)
Quick reminder: number only, in %, skip the unit.

Illustrative cases are given below, each with its answer.
(Q) // query inhibition value for entry `CC(C)(C)c1cccc(CNC[C@@H](O)[C@H](Cc2ccccc2)NC(=O)C(c2ccccc2)c2ccccc2)c1`
(A) 55

(Q) Looking for the measured inhibition of `O=C(N[C@@H](Cc1ccccc1)[C@H](O)CNCC(F)(F)F)C(c1ccccc1)c1ccccc1` , can you help?
(A) 102

(Q) Which inhibition value belongs to `C[C@H](NC[C@@H](O)[C@H](Cc1ccccc1)NC(=O)CC(c1ccccc1)c1ccccc1)c1ccccc1` ?
(A) 55

---
(Q) What does the record list as inhibition for `C[C@H](NC[C@@H](O)[C@H](Cc1ccccc1)NC(=O)C(c1ccccc1)c1ccccc1)c1ccccc1` ?
(A) 79

---

# targetSystem: UniProtKB P06276
# procedureSummary: Inhibition of human BuchE at 1 uM using butyrylthiocholine as substrate preincubated for 5 mins followed by substrate addition and measured after 5 mins by Ellman's method relative to control
# measurementContext: time 10.0 min
Rule: inhibition of 60% or more gives Condition met; anything lower gives Condition not met.

(Q) Record `COc1cccc(CNC[C@@H](O)[C@H](Cc2ccccc2)NCCC(c2ccccc2)c2ccccc2)c1` ; criterion: inhibition no lower than 60%. Met?
(A) Condition not met

(Q) # bool: inhibition of `O=C(N[C@@H](Cc1ccccc1)[C@H](O)CNCC1CC1)C(c1ccccc1)c1ccccc1` >= 60%
(A) Condition not met

(Q) Is it the case that `CC(C)(NC[C@@H](O)[C@H](Cc1ccccc1)NC(=O)C(c1ccccc1)c1ccccc1)c1ccccc1` has inhibition reaching or exceeding 60%?
(A) Condition not met

(Q) Hi, just wondering whether `CC(C)(C)NC[C@H](O)[C@H](Cc1ccccc1)NC(=O)CC(c1ccccc1)c1ccccc1` shows inhibition of 60% or higher.
(A) Condition not met

(Q) Hi, just wondering whether `CC(C)c1cccc(CNC[C@H](O)[C@H](Cc2ccccc2)NC(=O)C(c2ccccc2)c2ccccc2)c1` shows inhibition of 60% or higher.
(A) Condition met

(Q) Would you say `CC(C)c1cccc(CNC[C@@H](O)[C@H](Cc2ccccc2)NCCC(c2ccccc2)c2ccccc2)c1` shows inhibition at minimum 60%?
(A) Condition met

(Q) Exam item: decide whether the reported inhibition for `O=C(CC(c1ccccc1)c1ccccc1)N[C@@H](Cc1ccccc1)[C@H](O)CNCC(F)(F)F` is at least 60%.
(A) Condition not met

(Q) hey, is inhibition for this one >= 60%? `O=C(CC(c1ccccc1)c1ccccc1)N[C@@H](Cc1ccccc1)[C@@H](O)CNCc1cccc(C(F)(F)F)c1`
(A) Condition not met

(Q) Record `O=C(CC(c1ccccc1)c1ccccc1)N[C@@H](Cc1ccccc1)[C@H](O)CNCc1ccccc1` ; criterion: inhibition no lower than 60%. Met?
(A) Condition met

(Q) Item `C[C@H](NC[C@@H](O)[C@H](Cc1ccccc1)NCCC(c1ccccc1)c1ccccc1)c1ccccc1` with inhibition of 60% or above?
(A) Condition met

Continuing:
(Q) Entry `O=C(N[C@@H](Cc1ccccc1)[C@H](O)CNCc1ccccc1)C(c1ccccc1)c1ccccc1` : is its inhibition no less than 60%?
(A) Condition not met

(Q) In plain terms: is recorded inhibition at least 60% for `CC(C)(C)c1cccc(CNC[C@@H](O)[C@H](Cc2ccccc2)NC(=O)CC(c2ccccc2)c2ccccc2)c1` ?
(A) Condition met

(Q) Tell me whether inhibition is at least 60% here: `CC(C)(NC[C@@H](O)[C@H](Cc1ccccc1)NCCC(c1ccccc1)c1ccccc1)c1ccccc1`
(A) Condition not met

(Q) Exam item: decide whether the reported inhibition for `C[C@H](NC[C@@H](O)[C@H](Cc1ccccc1)NC(=O)C(c1ccccc1)c1ccccc1)c1ccccc1` is at least 60%.
(A) Condition not met

---

# targetSystem: Cholinesterase (Homo sapiens)
# Sequence (P06276 whole entry): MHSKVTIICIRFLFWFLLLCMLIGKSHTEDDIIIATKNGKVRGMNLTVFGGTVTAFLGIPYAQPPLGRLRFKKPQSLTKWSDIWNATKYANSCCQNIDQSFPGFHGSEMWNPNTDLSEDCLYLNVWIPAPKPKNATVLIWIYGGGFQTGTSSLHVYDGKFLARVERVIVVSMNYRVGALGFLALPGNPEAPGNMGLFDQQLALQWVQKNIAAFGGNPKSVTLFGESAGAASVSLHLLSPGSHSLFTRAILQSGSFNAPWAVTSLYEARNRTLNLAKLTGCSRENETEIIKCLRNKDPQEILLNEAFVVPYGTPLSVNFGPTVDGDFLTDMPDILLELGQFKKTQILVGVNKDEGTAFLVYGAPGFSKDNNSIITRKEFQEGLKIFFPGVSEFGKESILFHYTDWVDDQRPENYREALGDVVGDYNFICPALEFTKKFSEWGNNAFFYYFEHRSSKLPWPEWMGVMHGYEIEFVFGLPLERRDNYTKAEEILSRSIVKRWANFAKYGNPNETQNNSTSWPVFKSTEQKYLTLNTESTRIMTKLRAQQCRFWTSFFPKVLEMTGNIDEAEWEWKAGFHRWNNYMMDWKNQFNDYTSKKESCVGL
propertyName: IC50 (nM)
Give the quantity in nM, number only.

Consider the following illustrative entries.
(Q) Name the recorded IC50 for `CC(C)(C)c1ccc(CNC[C@H](O)[C@H](Cc2ccccc2)NC(=O)C(c2ccccc2)c2ccccc2)cc1` .
(A) 200

(Q) // IC50 lookup, key: `COc1ccccc1CNC[C@H](O)[C@H](Cc1ccccc1)NC(=O)CC(c1ccccc1)c1ccccc1`
(A) 350

Switching to the query record.
(Q) Recorded IC50 for `CC(C)(C)c1cccc(CNC[C@@H](O)[C@H](Cc2ccccc2)NC(=O)C(c2ccccc2)c2ccccc2)c1` , please?
(A) 20
